Reference source for all entries: FireProtDB (doi:10.1021/bi00435a062)

B1: Tissue-type plasminogen activator, P00750 (parent)
chain: MDAMKRGLCCVLLLCGAVFVSPSQEIHARFRRGARSYQVICRDEKTQMIYQQHQSWLRPVLRSNRVEYCWCNSGRAQCHSVPVKSCSEPRCFNGGTCQQALYFSDFVCQCPEGFAGKCCEIDTRATCYEDQGISYRGTWSTAESGAECTNWNSSALAQKPYSGRRPDAIRLGLGNHNYCRNPDRDSKPWCYVFKAGKYSSEFCSTPACSEGNSDCYFGNGSAYRGTHSLTESGASCLPWNSMILIGKVYTAQNPSAQALGLGKHNYCRNPDGDAKPWCHVLKNRRLTWEYCDVPSCSTCGLRQYSQPQFRIKGGLFADIASHPWQAAIFAKHRRSPGERFLCGGILISSCWILSAAHCFQERFPPHHLTVILGRTYRVVPGEEEQKFEVEKYIVHKEFDDDTYDNDIALLQLKSDSSRCAQESSVVRTVCLPPADLQLPDWTECELSGYGKHEALSPFYSERLKEAHVRLYPSSRCTSQHLLNRTVTDNMLCAGDTRSGGPQANLHDACQGDSGGPLVCLNDGRMTLVGIISWGLGCGQKDVPGVYTKVTNYLDWIRDNMRP

Variants of: B1
Settings: Homo sapiens; pH 4.5; Thermal; DSC; Citric acid/trisodium citrate 0.1 M/0.1 M/; reversible: yes; structure 1TPK; whole UniProt chain shown
Values of unfolding enthalpy (calorimetric) strictly less than 70 kcal/mol map to satisfied, and values of at least 70 kcal/mol map to not satisfied.

>>> answer_label("V280T")
"not satisfied"
>>> answer_label("V280S")
"satisfied"
>>> answer_label("V280I")
"satisfied"
>>> answer_label("V280A")
"not satisfied"

Consider the record given below.
Ask: Please check: unfolding enthalpy (calorimetric) for `V280M` , strictly under 70 kcal/mol or not?
Result: satisfied
